experiment: Hydrolytic stability in latex at 120° F., pH and Brookfield viscosity; assay type: physicochemical; details: Rhoplex AC 2508, 10 phr, 120° F., 1 week
I'd be grateful if you could share measured pH for these entries.
Write the number on its own, no unit after it.

**Query** Returns the measured pH for the input compound. Input: CC(C)C(=O)C(C)(C)C(=O)OCCO [Example 1]
**Result** 7.7

**Query** Give the measured pH of CC(C)C(=O)C(C)(C)C(=O)OCC(C)(C)CO [Example 2] .
**Result** 8.4

**Query** Which value of pH has been reported for CC(C)C(=O)C(C)(C)C(=O)OCCOCCOCCOC(=O)C(C)(C)C(=O)C(C)C [Example 4] in the records?
**Result** 8.3

**Query** Form field: reported pH of CC(C)C(=O)C(C)(C)C(=O)OCC(C)(C)C(O)C(C)C (stereo not shown) [Example 3]
**Result** 8.4

###

assay: Hydrolytic stability in latex at 120° F., pH and Brookfield viscosity; format: physicochemical; settings: Rhoplex AC 2508, 10 phr, 120° F., 3 weeks
I'd be grateful if you could share measured Viscosity (cps) for these entries.
Lab book: enter the figure in cps, no units written.

**Query** May I ask what Viscosity (cps) has been recorded for CC(C)C(=O)C(C)(C)C(=O)OCCOCCOCCOC(=O)C(C)(C)C(=O)C(C)C [Example 4] ?
**Result** 1150

**Query** Entry CC(C)C(=O)C(C)(C)C(=O)OCC(C)(C)CO [Example 2] : reported Viscosity (cps) = ?
**Result** 1220

**Query** I'd like to know its Viscosity (cps). The molecule in question is CC(C)C(=O)C(C)(C)C(=O)OCC(C)(C)C(O)C(C)C (stereo not shown) [Example 3]
**Result** 1250

**Query** So what's the measured Viscosity (cps) for this one? CC(C)C(=O)C(C)(C)C(=O)OCCO [Example 1]
**Result** 1060

###

For each entry below, report its pH value.
assay: Hydrolytic stability in latex at 120° F., pH and Brookfield viscosity; format: physicochemical; conditions: Rhoplex AC 2508, 10 phr coalescent, Initial
Quick one: just the number, no unit, thanks!

**Query** If you can, please state the reported pH value of CC(C)C(=O)C(C)(C)C(=O)OCC(C)(C)CO .
**Result** 8.5

**Query** GET /values?readout=pH&item= CC(C)C(=O)C(C)(C)C(=O)OCCOCCOCCOC(=O)C(C)(C)C(=O)C(C)C
**Result** 8.4

**Query** Item under review: CC(C)C(=O)C(C)(C)C(=O)OCCO . Reported pH?
**Result** 8.3

**Query** Look up pH for this compound: CC(C)C(=O)C(C)(C)C(=O)OCC(C)(C)C(O)C(C)C (stereo not shown)
**Result** 8.5
